targetDesc: α2C receptor (Homo sapiens, UniProt P18825)
Construct: host or cells: LM(tk-) cells, line L-α2C
protocolDescription: Competition binding, [3H]rauwolscine, human α2C receptor
runConditions: PKi alpha-2 2c, [3H]rauwolscine, human α2C receptor, LM(tk-) cells
pKi: −log10 of the molar value.
assayMetric: pKi

compound	dataValue
CC(=O)C1=C(C)NC(COCCN)=C(C(=O)NCCCN2CCC(c3ccccc3)(c3ccccc3)CC2)C1c1ccc2c(c1)OCO2 (centres unmarked) [Example 239]	6.58
CC(=O)C1=C(C)NC(COCCN)=C(C(=O)NCCCN2CCC(c3ccccc3)(c3ccccc3)CC2)C1c1ccc(F)cc1 (centres unmarked) [Example 242]	6.59

###

targetDesc: α2B receptor (Homo sapiens)
Construct: host or cells: LM(tk-) cells, line L-NGC-α2B
Sequence (P18089 whole entry): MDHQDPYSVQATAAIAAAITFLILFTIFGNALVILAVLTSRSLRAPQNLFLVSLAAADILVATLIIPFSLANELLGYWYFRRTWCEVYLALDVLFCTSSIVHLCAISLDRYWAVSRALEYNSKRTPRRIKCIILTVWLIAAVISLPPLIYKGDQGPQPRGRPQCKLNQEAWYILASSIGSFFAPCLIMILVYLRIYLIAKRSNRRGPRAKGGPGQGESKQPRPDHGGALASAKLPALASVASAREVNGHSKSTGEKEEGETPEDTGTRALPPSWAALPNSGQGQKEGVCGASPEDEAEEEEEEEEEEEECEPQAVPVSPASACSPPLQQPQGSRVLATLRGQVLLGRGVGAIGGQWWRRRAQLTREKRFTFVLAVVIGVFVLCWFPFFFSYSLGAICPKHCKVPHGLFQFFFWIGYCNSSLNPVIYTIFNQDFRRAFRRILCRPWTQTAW
protocolDescription: Competition binding, [3H]rauwolscine, human α2B receptor
runConditions: [3H]rauwolscine, LM(tk-) cell line L-NGC-α2B; SEM and n in lines below; read-out: pKi alpha-2 2b (converted)
Structures can show the parent of a compound that is named as a salt.
Ki listing for selected compounds.

compound	Ki / nM
COC(=O)C1=C(C)NC(C)=C(C(=O)NCCCN2CCC(c3ccccc3)CC2)C1c1ccc([N+](=O)[O-])cc1 (single isomer, unassigned; (-)) [(−)-45, hydrochloride hemihydrate]	229
COC(=O)C1=C(C)NC(C)=C(C(=O)NCCCN2CCC(c3ccccc3)CC2)C1c1ccc([N+](=O)[O-])cc1 (single isomer, unassigned; (+)) [(+)-45, hydrochloride hemihydrate]	91.2
COC(=O)C1=C(C)NC(C)=C(C(=O)NCCCN2CCC(c3ccccc3)CC2)C1c1ccc(C)cc1 (stereo not drawn) [Example 31]	138

###

Structures can show the parent of a compound that is named as a salt.
melting point listing for selected compounds.
assayMetric: melting point

compound	assayMetric	dataValue
CCC1=C(C(=O)OCCC#N)C(c2ccc([N+](=O)[O-])cc2)C(C(=O)NCCCN2CCC(c3ccccc3)CC2)=C(COC)N1 (stereo not drawn) [Example 221]	melting point	55 to 63 °C
CCC1=C(C(=O)OCCC#N)C(c2ccc([N+](=O)[O-])cc2)C(C(=O)NCCCN2CCC(C(=O)OC)(c3ccccc3)CC2)=C(COCCN=[N+]=[N-])N1 (stereo not drawn) [Example 226]	melting point	54 to 60 °C
COC(=O)C1=C(C)NC(C)=C(C(=O)NCCCN2CCC(c3ccccc3)CC2)C1c1ccncc1 (stereo not drawn) [Example 32]	melting point	79 to 80 °C
CCNC(=O)C1=C(C)NC(C)=C(C(=O)NCCCN2CCC(c3ccccc3)(c3ccccc3)CC2)C1c1ccc([N+](=O)[O-])cc1 (stereo not drawn) [Example 131]	melting point	104 to 108 °C
COC(=O)C1=C(C)NC(C)=C(C(=O)NCCCN2CCC(c3ccccc3)(c3ccccc3)CC2)C1c1cc(OC)c(OC)c(OC)c1 (stereo not drawn) [Example 27]	melting point	187 to 188 °C
CCNC(=O)C1=C(CC)NC(COCCN)=C(C(=O)NCCCN2CCC(C(=O)OC)(c3ccccc3)CC2)C1c1ccc([N+](=O)[O-])cc1 (stereo not drawn) [Example 233]	melting point	112 °C (dec.)
COc1ccc(C2(c3ccccc3)CCN(CCCNC(=O)C3=C(COCCN=[N+]=[N-])NC(C)=C(C(N)=O)C3c3ccc([N+](=O)[O-])cc3)CC2)cc1 (stereo not drawn) [Example 184]	melting point	105 to 107 °C
COC(=O)C1=C(C)NC(C)=C(C(=O)NCCCN2CCC(c3ccccc3)(c3ccccc3)CC2)C1c1ccc(Cl)cc1 (stereo not drawn) [Example 10]	melting point	240 to 242 °C
COC(=O)C1=C(C)NC(C)=C(C(=O)NCCCN2CCC(c3ccccc3)(c3ccccc3)CC2)C1c1cc[n+]([O-])cc1 (stereo not drawn) [Example 9]	melting point	206 to 209 °C (dec.)
COc1cccc(C2C(C(N)=O)=C(C)NC(C)=C2C(=O)NCCCN2CCC(c3ccccc3)(c3ccccc3)CC2)c1 (stereo not drawn) [Example 117]	melting point	212 to 213 °C
CC1=C(C(=O)NCCCN2CCC(c3ccccc3)(c3ccccc3)CC2)C(c2ccc([N+](=O)[O-])cc2)c2c([nH]c(=O)[nH]c2=O)N1 (stereo not drawn) [Example 64]	melting point	184 to 186 °C
CCC1=C(C(N)=O)C(c2ccc([N+](=O)[O-])cc2)C(C(=O)NCCCN2CCN(c3ccccc3)CC2)=C(CC)N1 (stereo not drawn) (as salt: hydrochloride) (hydrate or solvate) [Example 104, hydrochloride hydrate]	melting point	160 °C (dec.)

###

targetDesc: L-type calcium channel (Rattus norvegicus)
Construct: membrane fragments of rat cardiac muscle; from tissue; host or cells: rat cardiac muscle membranes
Sequence (P22002 whole entry, other chains not shown, the tested form may be a part): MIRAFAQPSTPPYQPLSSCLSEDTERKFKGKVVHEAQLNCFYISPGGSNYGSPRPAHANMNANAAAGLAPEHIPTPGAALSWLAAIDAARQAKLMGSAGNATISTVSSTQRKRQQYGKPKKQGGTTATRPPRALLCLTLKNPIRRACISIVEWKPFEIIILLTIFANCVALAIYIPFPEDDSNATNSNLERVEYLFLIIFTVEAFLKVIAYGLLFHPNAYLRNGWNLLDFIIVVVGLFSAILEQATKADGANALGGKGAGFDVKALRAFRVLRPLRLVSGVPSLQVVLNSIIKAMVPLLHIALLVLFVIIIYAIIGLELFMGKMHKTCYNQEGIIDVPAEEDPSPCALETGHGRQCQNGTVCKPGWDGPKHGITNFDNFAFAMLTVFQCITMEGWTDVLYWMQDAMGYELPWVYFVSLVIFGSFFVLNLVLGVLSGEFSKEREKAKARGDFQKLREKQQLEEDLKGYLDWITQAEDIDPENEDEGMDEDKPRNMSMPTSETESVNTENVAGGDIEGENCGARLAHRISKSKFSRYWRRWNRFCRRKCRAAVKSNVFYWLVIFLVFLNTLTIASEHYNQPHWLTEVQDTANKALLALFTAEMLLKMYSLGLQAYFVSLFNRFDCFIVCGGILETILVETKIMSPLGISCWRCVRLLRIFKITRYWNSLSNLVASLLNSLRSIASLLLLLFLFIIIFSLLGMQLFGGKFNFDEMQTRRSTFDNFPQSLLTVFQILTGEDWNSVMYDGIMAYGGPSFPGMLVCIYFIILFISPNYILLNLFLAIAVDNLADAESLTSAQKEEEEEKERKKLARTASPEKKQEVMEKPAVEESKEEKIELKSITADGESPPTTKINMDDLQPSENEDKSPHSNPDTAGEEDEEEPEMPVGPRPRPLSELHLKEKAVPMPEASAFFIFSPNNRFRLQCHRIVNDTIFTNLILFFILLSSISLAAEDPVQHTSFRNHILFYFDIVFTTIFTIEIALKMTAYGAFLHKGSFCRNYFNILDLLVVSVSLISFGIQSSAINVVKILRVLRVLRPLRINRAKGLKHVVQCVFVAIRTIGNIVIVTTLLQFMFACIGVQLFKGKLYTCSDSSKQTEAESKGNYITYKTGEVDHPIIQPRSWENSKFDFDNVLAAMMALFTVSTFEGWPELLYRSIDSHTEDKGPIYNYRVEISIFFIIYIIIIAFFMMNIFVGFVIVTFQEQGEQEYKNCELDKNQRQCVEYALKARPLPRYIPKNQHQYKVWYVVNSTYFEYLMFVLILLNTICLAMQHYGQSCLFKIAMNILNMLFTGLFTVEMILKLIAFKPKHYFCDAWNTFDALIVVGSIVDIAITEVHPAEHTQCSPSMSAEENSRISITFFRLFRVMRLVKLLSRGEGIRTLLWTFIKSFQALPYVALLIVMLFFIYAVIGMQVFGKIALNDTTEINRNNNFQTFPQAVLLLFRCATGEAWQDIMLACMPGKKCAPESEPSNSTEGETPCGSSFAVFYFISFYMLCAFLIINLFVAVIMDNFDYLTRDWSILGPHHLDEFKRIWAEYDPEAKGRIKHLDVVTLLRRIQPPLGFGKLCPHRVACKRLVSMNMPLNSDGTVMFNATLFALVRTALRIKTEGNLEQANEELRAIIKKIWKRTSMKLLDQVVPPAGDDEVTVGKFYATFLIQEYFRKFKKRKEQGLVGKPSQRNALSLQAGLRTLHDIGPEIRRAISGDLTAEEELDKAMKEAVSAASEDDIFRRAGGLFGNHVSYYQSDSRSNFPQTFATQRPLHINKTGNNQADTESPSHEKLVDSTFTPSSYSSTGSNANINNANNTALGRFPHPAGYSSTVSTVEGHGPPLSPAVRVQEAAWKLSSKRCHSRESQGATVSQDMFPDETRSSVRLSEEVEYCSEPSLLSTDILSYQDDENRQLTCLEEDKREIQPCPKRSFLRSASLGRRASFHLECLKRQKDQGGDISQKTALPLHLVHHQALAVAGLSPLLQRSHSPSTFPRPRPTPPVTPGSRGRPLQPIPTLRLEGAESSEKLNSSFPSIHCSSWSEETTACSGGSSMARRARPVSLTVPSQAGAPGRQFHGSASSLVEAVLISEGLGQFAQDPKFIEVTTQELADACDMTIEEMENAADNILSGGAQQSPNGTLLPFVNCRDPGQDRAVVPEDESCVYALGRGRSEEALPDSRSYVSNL
Sequence (P54290 25-944 partner limits assumed, other chains not shown): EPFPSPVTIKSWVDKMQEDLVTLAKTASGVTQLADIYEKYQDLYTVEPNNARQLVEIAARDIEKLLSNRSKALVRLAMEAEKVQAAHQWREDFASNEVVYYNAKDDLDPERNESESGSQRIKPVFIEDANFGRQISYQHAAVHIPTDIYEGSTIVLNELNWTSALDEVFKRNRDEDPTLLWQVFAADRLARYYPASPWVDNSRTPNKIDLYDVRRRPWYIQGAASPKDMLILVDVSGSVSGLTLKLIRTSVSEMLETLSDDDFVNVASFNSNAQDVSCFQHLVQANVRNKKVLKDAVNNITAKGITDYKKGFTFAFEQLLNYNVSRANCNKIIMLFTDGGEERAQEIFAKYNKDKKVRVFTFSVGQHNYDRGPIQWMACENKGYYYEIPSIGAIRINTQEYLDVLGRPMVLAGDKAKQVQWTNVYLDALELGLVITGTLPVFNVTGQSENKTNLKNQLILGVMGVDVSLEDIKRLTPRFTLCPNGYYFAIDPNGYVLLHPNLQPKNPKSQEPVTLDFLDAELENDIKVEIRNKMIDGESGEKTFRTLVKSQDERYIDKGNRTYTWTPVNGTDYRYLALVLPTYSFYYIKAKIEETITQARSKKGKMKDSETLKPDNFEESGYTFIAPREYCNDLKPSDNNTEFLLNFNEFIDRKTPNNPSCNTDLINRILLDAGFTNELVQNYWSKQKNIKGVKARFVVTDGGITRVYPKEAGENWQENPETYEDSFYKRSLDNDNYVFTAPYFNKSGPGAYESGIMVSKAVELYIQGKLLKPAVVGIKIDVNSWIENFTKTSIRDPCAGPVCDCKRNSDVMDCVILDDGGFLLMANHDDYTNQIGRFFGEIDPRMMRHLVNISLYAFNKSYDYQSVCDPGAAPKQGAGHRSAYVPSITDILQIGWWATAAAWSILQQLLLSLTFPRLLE
Sequence (P54290 945-1091 partner limits assumed, other chains not shown): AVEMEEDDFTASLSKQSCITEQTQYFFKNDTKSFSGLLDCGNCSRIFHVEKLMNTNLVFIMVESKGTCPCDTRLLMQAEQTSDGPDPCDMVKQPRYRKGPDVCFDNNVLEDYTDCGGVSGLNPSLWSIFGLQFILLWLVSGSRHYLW
protocolDescription: Competition binding of [3H]nitrendipine to membrane fragments of rat cardiac muscle
runConditions: [3H]nitrendipine, rat cardiac muscle membranes; SEM and n in lines below
assayMetric: pKi Ca

molecule	dataValue
CC1=C(C(N)=O)C(c2ccc([N+](=O)[O-])cc2)C(C(=O)NCCCN2CCC(c3ccccc3)(c3ccccc3)CC2)=C(C)N1 (single isomer, unassigned; (+)) [(+)-2]	4.11
CC1=C(C(N)=O)C(c2ccc([N+](=O)[O-])cc2)C(C(=O)NC2CCN(Cc3ccccc3)CC2)=C(c2ccoc2)N1.Cl.O (stereo not drawn) [Example 66]	6.22
COC(=O)C1=C(C)NC(c2ccccc2)=C(C(=O)NCCCN2CCC(c3ccccc3)CC2)C1c1ccc([N+](=O)[O-])cc1.Cl (stereo not drawn) [Example 79]	6.17
CCC1=C(C(=O)NCCCN2CCc3cc(OC)c(OC)cc3C2)C(c2ccc([N+](=O)[O-])cc2)C(C(N)=O)=C(C)N1.Cl.O (stereo not drawn) [Example 76]	5.49
CCC1=C(C(=O)NCCCCN2CCC(c3ccccc3)CC2)C(c2ccc([N+](=O)[O-])cc2)C(C(N)=O)=C(C)N1.Cl.O (stereo not drawn) [Example 77]	5.94
COC(=O)C1=C(C)NC(C)=C(C(=O)NCCCCN2CCC(c3ccccc3)(c3ccccc3)CC2)C1c1ccc([N+](=O)[O-])cc1.Cl.O (stereo not drawn) [Example 53]	5.54

###

targetDesc: α1C Human Adrenergic Receptor (Homo sapiens)
Construct: The entire coding region of α1C (1401 bp); expressed in transfected cells
Sequence (P35348 whole entry): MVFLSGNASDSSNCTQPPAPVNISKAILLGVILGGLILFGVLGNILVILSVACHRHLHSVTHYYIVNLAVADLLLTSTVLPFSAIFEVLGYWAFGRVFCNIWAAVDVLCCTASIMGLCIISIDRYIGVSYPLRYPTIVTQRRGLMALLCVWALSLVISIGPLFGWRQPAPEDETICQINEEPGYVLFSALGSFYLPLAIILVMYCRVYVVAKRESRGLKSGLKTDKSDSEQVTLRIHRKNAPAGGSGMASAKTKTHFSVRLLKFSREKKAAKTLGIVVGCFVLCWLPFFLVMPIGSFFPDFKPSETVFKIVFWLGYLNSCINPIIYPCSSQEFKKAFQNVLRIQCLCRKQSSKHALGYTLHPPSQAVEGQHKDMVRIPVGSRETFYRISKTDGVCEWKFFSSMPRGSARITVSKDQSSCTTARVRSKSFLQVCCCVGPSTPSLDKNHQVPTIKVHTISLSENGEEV
protocolDescription: Radioligand binding, [3H]prazosin, cloned human α1C adrenergic receptor
runConditions: cloned human receptor in LM(tk-) cell membranes, SEM and n in lines below
assayMetric: pKi alpha-1 1c

molecule	targetDesc	assayMetric	dataValue
COC(=O)C1=C(C)NC(c2ccccc2)=C(C(=O)NCCCN2CCC(c3ccccc3)CC2)C1c1ccc([N+](=O)[O-])cc1.Cl (stereo not drawn)	α1C Human Adrenergic Receptor (Homo sapiens)	pKi alpha-1 1c	7.76
CC(=O)C1=C(C)NC(C)=C(C(=O)NCCCN2CCC(c3ccccc3)(c3ccccc3)CC2)C1c1ccc([N+](=O)[O-])cc1 (stereo not drawn)	α1C Human Adrenergic Receptor (Homo sapiens)	pKi alpha-1 1c	8.93
CC1=C(C(N)=O)C(c2ccc([N+](=O)[O-])cc2)C(C(=O)NC2CCN(Cc3ccccc3)CC2)=C(c2ccoc2)N1.Cl.O (stereo not drawn)	α1C Human Adrenergic Receptor (Homo sapiens)	pKi alpha-1 1c	6.59

###

Ki listing for selected compounds.
targetDesc: α2A receptor (Homo sapiens)
Construct: host or cells: LM(tk-) cells, line L-α2A
Sequence (P08913 whole entry): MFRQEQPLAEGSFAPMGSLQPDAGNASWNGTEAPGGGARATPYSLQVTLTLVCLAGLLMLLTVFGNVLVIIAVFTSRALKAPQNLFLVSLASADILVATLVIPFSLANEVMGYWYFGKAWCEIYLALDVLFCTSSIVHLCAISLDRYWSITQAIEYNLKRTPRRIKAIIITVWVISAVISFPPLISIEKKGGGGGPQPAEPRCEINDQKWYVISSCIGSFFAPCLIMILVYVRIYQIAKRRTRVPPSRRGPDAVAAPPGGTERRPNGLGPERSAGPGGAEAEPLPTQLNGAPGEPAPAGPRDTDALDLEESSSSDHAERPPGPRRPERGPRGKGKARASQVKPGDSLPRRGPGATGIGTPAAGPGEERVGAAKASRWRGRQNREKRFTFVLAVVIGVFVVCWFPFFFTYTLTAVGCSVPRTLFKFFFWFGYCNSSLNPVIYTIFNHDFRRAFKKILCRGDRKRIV
protocolDescription: Competition binding, [3H]rauwolscine, human α2A receptor
runConditions: [3H]rauwolscine, human α2A receptor, LM(tk-) cells; read-out: PKi alpha-2 2a (converted)

compound	Ki [µM]
COC(=O)C1(c2ccccc2)CCN(CCCNC(=O)C2=C(COCCN)NC(C)=C(C(C)=O)C2c2ccc(F)cc2)CC1 (stereo not drawn)	1.05
CCC1=C(C(=O)NCCOC)C(c2ccc([N+](=O)[O-])cc2)C(C(=O)NCCCN2CCC(c3ccccc3)(c3ccccc3)CC2)=C(COC)N1 (stereo not drawn)	0.589
CCC1=C(C(=O)NN2CCOCC2)C(c2ccc([N+](=O)[O-])cc2)C(C(=O)NCCCN2CCC(c3ccccc3)(c3ccccc3)CC2)=C(COC)N1 (stereo not drawn)	1
CCC1=C(C(=O)OCCO)C(c2ccc([N+](=O)[O-])cc2)C(C(=O)NCCCN2CCC(c3ccccc3)(c3ccccc3)CC2)=C(COC)N1 (stereo not drawn)	0.676
COC(=O)C1=C(C)NC(C)=C(C(=O)NCCCN2CCC(c3ccccc3)CC2)C1c1ccc2c(c1)OCO2 (stereo not drawn)	0.123
CCOC(=O)C1(c2ccccc2)CCN(CCCNC(=O)C2=C(COCC(F)(F)F)NC(C)=C(C(N)=O)C2c2ccc([N+](=O)[O-])cc2)CC1 (stereo not drawn)	2.24
CC(=O)C1=C(C)NC(COCCN)=C(C(=O)NCCCN2CCC(c3ccccc3)(c3ccccc3)CC2)C1c1ccc(F)cc1 (stereo not drawn)	1.41
CC(=O)C1=C(C)NC(COCCN)=C(C(=O)NCCCN2CCC(c3ccccc3)(c3ccccc3)CC2)C1c1ccc2c(c1)OCO2 (stereo not drawn)	0.832
CCOC(=O)C1(c2ccccc2)CCN(CCCNC(=O)C2=C(COCCN)NC(C)=C(C(C)=O)C2c2ccc3c(c2)OCO3)CC1 (stereo not drawn)	1.02
